Cited source for all entries: patent US20210000909A1

- test target: PDZ1/2 domain, P78352
- Sequence (P78352 61-249 limits assumed): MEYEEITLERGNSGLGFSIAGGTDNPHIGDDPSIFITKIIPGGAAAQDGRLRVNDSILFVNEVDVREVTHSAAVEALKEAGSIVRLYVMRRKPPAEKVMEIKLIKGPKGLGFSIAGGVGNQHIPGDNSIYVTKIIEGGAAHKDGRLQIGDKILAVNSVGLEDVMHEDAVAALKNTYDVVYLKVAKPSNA
measurement label: pKd
Answers are plain numbers, as −log10 of the molar value.

What pKd value was documented for this binder, YGRKKRRQRRRYEKLSSIESDV (modifications not checked) [chimeric peptide YE-NA-1] ?
7.26
